Each record here notes measured Activity.
assay-method-text: Induction of nitric oxide release in phosphate buffer at 10^-4 M at pH 7.4 after 3 hrs by Griess colorimetric method in presence of N-acetylcysteine
Format: physicochemical
measurement-parameters: pH 7.4, 3 h, 100 µM
endpoint: Activity (mol/mol)

C=CCn1c(SCC(=O)Nc2ccc(/C(C)=N/O)cc2)nnc1-c1cc(OC)c(OC)c(OC)c1 = 0.19
CCn1c(SCC(=O)Nc2ccc(/C(C)=N/O)cc2)nnc1-c1ccc(OC)c(OC)c1 = 0.25
COc1ccc(-c2nnc(SCC(=O)Nc3ccc(/C(C)=N/O)cc3)n2-c2ccccc2)cc1 = 0.24

====

Test system: Rattus norvegicus
assay-method-text: Antiinflammatory activity in albino rat assessed as inhibition of carrageenan-induced paw edema at 0.28 mmol/kg, po administered 30 mins prior to carrageenan-challenge measured after 3 hrs relative to control
Assay type: functional
Each record here notes measured inhibition in vivo at 280 µmol/kg.
endpoint: inhibition in vivo at 280 µmol/kg

C=CCn1c(SCC(=O)Nc2ccc(/C(C)=N/O)cc2)nnc1-c1ccc(OC)c(OC)c1 = 70%
CCn1c(SCC(=O)Nc2ccc(/C(C)=N/O)cc2)nnc1-c1cc(OC)c(OC)c(OC)c1 = 70%
CCn1c(SCC(=O)Nc2ccc(C(C)=O)cc2)nnc1-c1ccc(OC)c(OC)c1 = 62%
COc1cc(-c2nnc(SCC(=O)Nc3ccc(/C(C)=N/O)cc3)n2-c2ccccc2)cc(OC)c1OC = 66%
C=CCn1c(SCC(=O)Nc2ccc(C(C)=O)cc2)nnc1-c1ccccc1 = 54%
CCn1c(SCC(=O)Nc2ccc(C(C)=O)cc2)nnc1-c1ccccc1 = 56%
C=CCn1c(SCC(=O)Nc2ccc(/C(C)=N/O)cc2)nnc1-c1cc(OC)c(OC)c(OC)c1 = 62%
COc1cc(-c2nnc(SCC(=O)Nc3ccc(C(C)=O)cc3)n2-c2ccccc2)cc(OC)c1OC = 55%
COc1ccc(-c2nnc(SCC(=O)Nc3ccc(C(C)=O)cc3)n2-c2ccccc2)cc1 = 58%
C=CCn1c(SCC(=O)Nc2ccc(/C(C)=N/O)cc2)nnc1-c1ccccc1 = 73%
CCn1c(SCC(=O)Nc2ccc(/C(C)=N/O)cc2)nnc1-c1ccc(OC)cc1 = 60%
C=CCn1c(SCC(=O)Nc2ccc(C(C)=O)cc2)nnc1-c1cc(OC)c(OC)c(OC)c1 = 55%
COc1ccc(-c2nnc(SCC(=O)Nc3ccc(C(C)=O)cc3)n2-c2ccccc2)cc1OC = 51%
CCn1c(SCC(=O)Nc2ccc(/C(C)=N/O)cc2)nnc1-c1ccc(OC)c(OC)c1 = 66%
COc1ccc(-c2nnc(SCC(=O)Nc3ccc(/C(C)=N/O)cc3)n2-c2ccccc2)cc1OC = 77%
CCn1c(SCC(=O)Nc2ccc(C(C)=O)cc2)nnc1-c1ccc(OC)cc1 = 57%
C=CCn1c(SCC(=O)Nc2ccc(/C(C)=N/O)cc2)nnc1-c1ccc(OC)cc1 = 63%
C=CCn1c(SCC(=O)Nc2ccc(C(C)=O)cc2)nnc1-c1ccc(OC)cc1 = 52%
C/C(=N\O)c1ccc(NC(=O)CSc2nnc(-c3ccccc3)n2-c2ccccc2)cc1 = 63%
C=CCn1c(SCC(=O)Nc2ccc(C(C)=O)cc2)nnc1-c1ccc(OC)c(OC)c1 = 58%
COc1ccc(-c2nnc(SCC(=O)Nc3ccc(/C(C)=N/O)cc3)n2-c2ccccc2)cc1 = 57%
CC(=O)c1ccc(NC(=O)CSc2nnc(-c3ccccc3)n2-c2ccccc2)cc1 = 62%
CCn1c(SCC(=O)Nc2ccc(C(C)=O)cc2)nnc1-c1cc(OC)c(OC)c(OC)c1 = 54%
COc1ccc2c(c1)c(CC(=O)O)c(C)n2C(=O)c1ccc(Cl)cc1 = 74%
CCn1c(SCC(=O)Nc2ccc(/C(C)=N/O)cc2)nnc1-c1ccccc1 = 65%
